Tested on: NCI-H292 lung cancer cells
assay.protocol: FDA drug screening, complete media vs cholesterol-free media with simvastatin (TABLE 2)
Assay type: cell-based, human
conditions: NCI-H292 cells, cholesterol-free media with simvastatin 0.04 μM; FDA drug library screen (TABLE 2)
Square brackets hold non-standard residues; d marks the D form. Peptide text beside a SMILES is read from it. * marks the point of attachment. dPhe(4-NHCONH2) = NC(=O)Nc1ccc(C[C@@H](N)C(=O)O)cc1; Dihydroorotyl(S) = O=C1C[C@@H](C(=O)*)NC(=O)N1; dPhe(4-Cl) = N[C@H](Cc1ccc(Cl)cc1)C(=O)O; Phe(4-NH2) = Nc1ccc(C[C@H](N)C(=O)O)cc1; d2Nal = N[C@H](Cc1ccc2ccccc2c1)C(=O)O; Lys(iPr) = CC(C)NCCCC[C@H](N)C(=O)O; d3Pal = N[C@H](Cc1cccnc1)C(=O)O
Threshold check on Cholesterol-free media + simvastatin (0.04 μM): at or above 1 gives Satisfied, strictly below gives Not satisfied.

compound	class.name
NC(=O)Cc1cccc(C(=O)c2ccccc2)c1N [Nepafenac]	Satisfied
O=C(Nc1ccc(O)cc1)c1ccccc1O [Osalmid]	Not satisfied
CC(=O)N[C@H](Cc1ccc2ccccc2c1)C(=O)N[C@H](Cc1ccc(Cl)cc1)C(=O)N[C@H](Cc1cccnc1)C(=O)N[C@@H](CO)C(=O)N[C@@H](Cc1ccc(NC(=O)[C@@H]2CC(=O)NC(=O)N2)cc1)C(=O)N[C@H](Cc1ccc(NC(N)=O)cc1)C(=O)N[C@@H](CC(C)C)C(=O)N[C@@H](CCCCNC(C)C)C(=O)N1CCC[C@H]1C(=O)N[C@H](C)C(N)=O [Degarelix] (Ac-[d2Nal][dPhe(4-Cl)][d3Pal]S[Phe(4-NH2)](Dihydroorotyl(S))[dPhe(4-NHCONH2)]L[Lys(iPr)]P[dA]-NH2)	Satisfied
Cl.NCCC[C@](N)(C(=O)O)C(F)F [L-Eflornithine (monohydrochloride)]	Satisfied
O=C(O)Cc1ccc(-c2ccccc2)cc1 [Felbinac]	Satisfied

# ---- query compound ----
Could you please find out whether N#Cc1nn(-c2c(Cl)cc(C(F)(F)F)cc2Cl)c(N)c1[S+]([O-])C(F)(F)F (stereo not shown) [Fipronil] has Cholesterol-free media + simvastatin (0.04 μM) that meets 1 or exceeds it?
Satisfied

###

System: NCI-H292 lung cancer cells
assay.protocol: FDA drug screening, complete media vs cholesterol-free media without statin (TABLE 1)
Assay type: cell-based, human
conditions: NCI-H292 cells, FDA drug library screen, cholesterol-free media without statin
Counter-ions that a name gives are not always drawn.
Short version: Cholesterol-free at least 1 is TRUE, less is FALSE.

molecule	class.name
CCOc1cc(CC(=O)N[C@@H](CC(C)C)c2ccccc2N2CCCCC2)ccc1C(=O)O [Repaglinide]	TRUE

Is Cholesterol-free at least 1? Consider CN(C)CCCN1c2ccccc2Sc2ccccc21 [Promazine (hydrochloride)]
TRUE

Check this molecule for Cholesterol-free at or above 1: O=C(O)CCCc1ccccc1
TRUE

Record Cc1cc(C2CCCCC2)n(O)c(=O)c1 ; criterion: Cholesterol-free no lower than 1. Met?
FALSE

Form field: Cholesterol-free at least 1? Entry: OC1(c2ccc(Cl)c(C(F)(F)F)c2)CCN(CCCC(c2ccc(F)cc2)c2ccc(F)cc2)CC1
FALSE

###

Test system: NCI-H292 lung cancer cells
assay.protocol: FDA drug screening, complete media vs cholesterol-free media without statin (TABLE 1)
Format: cell-based, human
conditions: NCI-H292 cells, complete media, FDA drug library screen
Label rule, in plain words: Complete of 1 and up is label 1, under 1 is label 0.

Before answering, review these 2 worked examples.
compound	class.name
CO/N=C(\C(=O)N[C@@H]1C(=O)N2C(C(=O)OCOC(=O)C(C)(C)C)=C(/C=C\c3scnc3C)CS[C@H]12)c1csc(N)n1	label 0
C[C@H]1C[C@H]2[C@@H]3CCC4=CC(=O)C=C[C@]4(C)[C@@]3(Cl)[C@@H](O)C[C@]2(C)[C@@]1(O)C(=O)CO	label 1

Dear colleague, could you confirm whether C1N2CN3CN1CN(C2)C3.O=C(O)CNC(=O)c1ccccc1 [Methenamine (hippurate)] has Complete at or above 1?
label 0

hey, is Complete for this one >= 1? CC(=O)S[C@@H]1CC2=CC(=O)CC[C@]2(C)[C@H]2CC[C@@]3(C)[C@@H](CC[C@@]34CCC(=O)O4)[C@H]12
label 1

Has Cc1onc(-c2ccccc2)c1C(=O)N[C@@H]1C(=O)N2[C@@H]1SC(C)(C)[C@@H]2C(=O)O [Oxacillin (sodium monohydrate)] a recorded Complete greater than or equal to 1?
label 0

Hello, I need to know if COc1cc(/C=C/C(=O)O)ccc1O.[Na] [Ferulic acid (sodium)] has measured Complete not below 1. Thanks!
label 1

Quick check: does CCN(CC)c1ccc(C(=C2C=CC(=[N+](CC)CC)C=C2)c2cc(S(=O)(=O)[O-])ccc2S(=O)(=O)[O-])cc1.[Na+] have Complete greater than or equal to 1?
label 1

Is Complete for CCOc1ccccc1C(N)=O [2-Ethoxybenzamide] at or above 1?
label 0

Test whether the compound NC(=O)OCC(COC(N)=O)c1ccccc1 [Felbamate] records Complete of 1 or higher.
label 1

Does the reported Complete for CCC(C)n1ncn(-c2ccc(N3CCN(c4ccc(OCC5COC(Cn6cncn6)(c6ccc(Cl)cc6Cl)O5)cc4)CC3)cc2)c1=O (centres unmarked) fall at or above the 1 mark?
label 1

Identify whether the reported Complete of the following compound is 1 or greater: Cc1cc(-c2ccc(/N=N/c3ccc4c(S(=O)(=O)O)cc(S(=O)(=O)O)c(N)c4c3O)c(C)c2)ccc1/N=N/c1ccc2c(S(=O)(=O)O)cc(S(=O)(=O)O)c(N)c2c1O
label 1

Determine whether this compound has Complete no lower than 1: NC(=O)[C@@H]1CC[C@@H]2CN1C(=O)N2OS(=O)(=O)O [Avibactam (sodium hydrate)]
label 0

Item CCCC(=O)O[C@]1(C(=O)CO)CC[C@H]2[C@@H]3CCC4=CC(=O)CC[C@]4(C)[C@H]3[C@@H](O)C[C@@]21C [Hydrocortisone 17-butyrate] with Complete of 1 or above?
label 1

Test whether the compound CO/N=C(\C(=O)N[C@@H]1C(=O)N2C(C(=O)[O-])=C(CSc3nc(C)c(CC(=O)[O-])s3)CS[C@H]12)c1csc(N)n1.[Na+].[Na+] [Cefodizime (sodium)] records Complete of 1 or higher.
label 1

###

Tested on: NCI-H292 lung cancer cells
assay.protocol: FDA drug screening, complete media vs cholesterol-free media without statin (TABLE 1)
Type: cell-based, human
conditions: NCI-H292 cells, cholesterol-free media without statin, FDA drug library screen
Where a name gives a salt, the structure may show the parent alone.
Grouping rule (Cholesterol-free): zone 1 = under 0.8, zone 2 = from 0.8 up to 1, zone 3 = 1 and over

molecule	class.name
CC(C)(C)NC[C@H](O)COc1cccc2c1CCCC2=O [Levobunolol (hydrochloride)]	zone 1
C#C[C@]1(O)CC[C@H]2[C@@H]3CCC4=CC(=O)CC[C@@H]4[C@H]3CC[C@@]21C	zone 3
CCOC(=O)c1ncn2c1CN(C)C(=O)c1cc(F)ccc1-2	zone 3
Cc1c(C(=O)Nc2ccc(N3C[C@@H](C)O[C@@H](C)C3)nc2)cccc1-c1ccc(OC(F)(F)F)cc1	zone 1
CC1(C)O[C@@H]2C[C@H]3[C@@H]4CCC5=CC(=O)C=C[C@]5(C)[C@H]4[C@@H](O)C[C@]3(C)[C@]2(C(=O)CO)O1 [Desonide]	zone 1
CCCCN(CCCC)CC(O)c1cc(Cl)cc2c1-c1ccc(Cl)cc1/C2=C/c1ccc(Cl)cc1 (centres unmarked)	zone 2
CCCNCC(O)COc1ccccc1C(=O)CCc1ccccc1 (centres unmarked) [Propafenone (hydrochloride)]	zone 3
CN(C)CCc1c[nH]c2ccc(Cn3cncn3)cc12.O=C(O)c1ccccc1 [Rizatriptan (benzoate)]	zone 1

Category of CC(C)C(=O)c1c(C(C)C)nn2ccccc12 , please.
zone 3

Field: class (Cholesterol-free) — entry: O=C1c2c(O)ccc(O)c2C(=O)c2c(NCCNCCO)ccc(NCCNCCO)c21 [Mitoxantrone (dihydrochloride)]
zone 1

Hey, which category is CC(=O)Nc1cccc(-n2c(=O)n(C3CC3)c(=O)c3c(Nc4ccc(I)cc4F)n(C)c(=O)c(C)c32)c1 [Trametinib] in, do you know?
zone 1

Please classify: COc1c(C)c2c(c(O)c1C/C=C(\C)CCC(=O)OCCN1CCOCC1)C(=O)OC2 [Mycophenolate Mofetil]
zone 1

Form: Item = CC(C)NCC(O)COc1ccc(CCOCC2CC2)cc1 (centres unmarked) [Betaxolol (hydrochloride)] ; Class = ?
zone 2

###

Test system: NCI-H292 lung cancer cells
assay.protocol: FDA drug screening, complete media vs cholesterol-free media without statin (TABLE 1)
Assay type: cell-based, human
conditions: NCI-H292 cells, FDA drug library screen, cholesterol-free media without statin
Where a name gives a salt, the structure may show the parent alone.
measured.metric: Cholesterol-free

compound	value.measured
CO/N=C(\C(=O)N[C@@H]1C(=O)N2C(C(=O)OCOC(=O)C(C)(C)C)=C(C)CS[C@H]12)c1csc(N)n1.Cl [Cefetamet pivoxil (hydrochloride)]	1.076
CO[C@@]1(NC(=O)Cc2cccs2)C(=O)N2C(C(=O)O)=C(COC(N)=O)CS[C@@H]21 [Cefoxitin]	0.8861
CC(C)C[C@@H](N)C(=O)N[C@H]1C(=O)N[C@@H](CC(N)=O)C(=O)N[C@H]2C(=O)N[C@H]3C(=O)N[C@H](C(=O)N[C@H](C(=O)O)c4cc(O)cc(O)c4-c4cc3ccc4O)[C@H](O)c3ccc(c(Cl)c3)Oc3cc2cc(c3O[C@@H]2O[C@H](CO)[C@@H](O)[C@H](O)[C@H]2O[C@H]2C[C@](C)(N)[C@H](O)[C@H](C)O2)Oc2ccc(cc2Cl)[C@H]1O.Cl [Norvancomycin (hydrochloride)]	1.244

Return Cholesterol-free (reported value) for this compound: Cc1cn([C@H]2C=C[C@@H](CO)O2)c(=O)[nH]c1=O [Stavudine]
0.9921

Please list Cholesterol-free recorded for the compound NC(=O)CCC(N)C(=O)O (racemic) [DL-Glutamine]
1.771

Please give measured Cholesterol-free of the following entry: CN(C)CCC=C1c2ccccc2C(C)(C)c2ccccc21 [Melitracen (hydrochloride)]
1.283
